Tested on: A-431
Assay: Cytotoxicity against human A431 cells
Format: functional
Settings: read-out: ED50 (the source's name)
readout_name: EC50

structure_as_smiles	assay_result
COc1cc([C@@H]2c3cc4c(cc3C[C@@H]3COC(=O)[C@H]32)OCO4)cc(OC)c1OC	6.2 µg/mL
COc1cc(C[C@H]2C(=O)OC[C@@H]2Cc2ccc3c(c2)OCO3)cc(OC)c1OC	> 20 µg/mL
COc1cc([C@@H]2c3cc4c(cc3C[C@H]3COC(=O)[C@@H]32)OCO4)cc(OC)c1O	0.08 µg/mL
COc1cc(-c2c3c(cc4c(OC)c5c(cc24)OCO5)COC3=O)cc(OC)c1OC	> 20 µg/mL
COc1cc([C@@H]2c3cc4c(cc3C[C@H]3COC(=O)[C@H]32)OCO4)cc(OC)c1OC	> 20 µg/mL
COc1cc([C@@H]2c3cc4c(cc3C[C@H]3COC(=O)[C@@H]32)OCO4)cc(OC)c1OC	4.3 µg/mL
